method: growth suppression of beta-catenin knockout HCT116, pilot screen, human colon tumor cells (AID 823);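 note: 0% = wells killed by 20 µM Hyamine and 100% = untreated DMSO cell wells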
assay_setup: CellTiter-Glo, 60 h, at 10 µM, stronger effect = lower value
Records with an inconclusive call do not appear. Calls of active or inactive are those of the source.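 Rule for the calls: active = cell viability at or below a set limit in both duplicate runs, the limit being the all-compound median minus 4 SD (cut at about 23% in these data, passing the limit was not always enough); inconclusive = no clear call, values can overlap the other calls; inactive = the rest.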
measured_quantity: viability

Below, 5 compounds whose answers are already recorded.
Form: compound = `FC(F)(F)c1nnc2ccc(-n3ccnc3)nn12` ; viability = 103% (inactive)

viability measured on `Cc1c(N=c2c(=O)c3ccccc3c2=O)c(=O)n(-c2ccccc2)n1C` = 95.2% (inactive)

Just so you know, measured viability for `COc1cccc(N2CCN(C(=O)c3ccc4nc(N5CCCCC5)sc4c3)CC2)c1` came out at 89.1% (inactive)

The measured viability associated with `O=C(NCCCN1CCc2ccccc2C1)C1CCN(c2nnc(-n3cccc3)s2)CC1` reads 82.2% (inactive)

viability measured on `O=C(NCCC1=CCCCC1)NC1CCCCC1` = 87.2% (inactive)

Hi, could you look up viability for each item in my list?
1. O=C(C1=C(O)C(=O)N(c2ncccn2)C1c1cccs1)c1ccco1 (stereo unspecified)
2. Cc1ccc(C2CC(c3ccc(F)cc3)Nc3nc(N)nn32)cc1 (stereo unspecified)
3. COC(=O)c1cc(OC)c(OC)cc1N=CC1=C(O)CC(C)(C)CC1=O
4. O=S(=O)(NC1CCCCC1NCc1ccco1)c1ccccc1 (stereo unspecified)
5. CN1c2ccccc2-c2nc3ccccc3n2C1c1ccccn1 (stereo unspecified)
6. COc1ccc(S(=O)(=O)Cc2ccc(C(=O)N3CCN(C4CCCCC4)CC3)o2)cc1

A.
["86.5% (inactive)", "99.8% (inactive)", "99.5% (inactive)", "98% (inactive)", "73.8% (inactive)", "78.9% (inactive)"]

---

method: HUVEC growth inhibition – cell-based, human, primary screen (AID 575);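 note: 100% = median of untreated cell wells with 0.1% DMSO on each plate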
assay_setup: HUVEC proliferation, CellTiter-Glo luminescence, 72 h; at 10 µM; stronger effect = lower value
measured_quantity: viability (%)
One number for each entry, in %.

Worked examples, 10 molecules total:
// sample `COc1ccccc1CNC(=O)N[C@@H](Cc1ccccc1)C(=O)O` , its viability was 114

Looking up `COc1ccc(C(=O)N(CCCO)Cc2cc3c(C)ccc(C)c3[nH]c2=O)cc1OC` , I see its viability listed as 113

Quick note, viability for `CCN(C(=O)c1cc2cc3ccc(C)cc3nc2o1)c1ccc(OC)cc1` landed at 61

For reference, reported viability for `COc1ccccc1-n1c(SCC(N)=O)nnc1-c1ccccc1` stands at 88.7

For reference, reported viability for `CCCn1c(=O)[nH]c(=O)c2[nH]cnc21` stands at 98.1

// viability lookup, molecule = `CCOC(=O)N1CCN(C(=O)CSCC(=O)Nc2nc(-c3ccc(OC)cc3)cs2)CC1` , result: 77.8

// recorded viability for `CC(=O)Nc1ccc(S(=O)(=O)N2CCC(NC(C)=O)(c3cccc(F)c3)CC2)cc1` : 100

In plain terms, COc1ccccc1N1CCN(c2nc3ccccc3nc2C(C#N)C(=O)OC(C)C)CC1 (configuration not stated) has a documented viability of 71.6

Record COC(=O)C(O)(CC(=O)c1ccc(OC)cc1)C(F)(F)F (configuration not stated) , field viability: 91.5

Entry `COc1ccc2[nH]c(=O)c(CN(C(=O)c3ccncc3)C(C)C)cc2c1` ; viability = 113

Each of the following entries comes with a recorded value; kindly state viability for each.
1. O=C(NC1CCN(Cc2nnnn2CCc2ccccc2)CC1)c1ccccc1F
2. Cc1cn([C@H]2C=C[C@@H](CO)O2)c(=O)[nH]c1=O
3. CCOC(=O)c1oc2ccccc2c1CSc1nnnn1-c1ccc(C)cc1
4. COc1ccc([C@@H]2Sc3ccccc3N(CCN(C)C)C(=O)[C@@H]2OC(C)=O)cc1

A.
1. 85.4
2. 104
3. 83.2
4. 100

Below is a list of molecules. For each, state its recorded viability.
1. Cc1nc2sc(C(c3cccc(F)c3)N3CCOCC3)c(O)n2n1 (configuration not stated)
2. CCOC(=O)c1ccc(NC(=O)CSCc2ccco2)cc1
3. Cc1nn(-c2ccc(F)cc2)c(C)c1NS(=O)(=O)c1ccc(Cl)cc1
4. CC1(C)Cc2noc(N)c2C(C)(C)N1OC(=O)c1ccccc1
5. O=S1(=O)CC(N2CCOCC2)c2ccccc21 (configuration not stated)

A.
1. 90.8
2. 81.9
3. 90.9
4. 104
5. 92.2

---

method: SK-BR-3 cell growth inhibitors, pilot screen, 24 h, human (AID 572);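 note: compound exposure lasted between 18 and 24 h rather than exactly 24 h; 100% = carrier-treated control wells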
assay_setup: SK-BR-3 viability, CellTiter-Glo luminescence, at 10 µM, stronger effect = lower value
Can you tell me viability for the items I'm about to list?
Give bare numbers, in %.

get_value(item= `Cc1c(NC(=O)CN2c3cccc4cccc(c34)S2(=O)=O)c(=O)n(-c2ccccc2)n1C` , readout=viability) returns 122

The compound `COc1cccc(-c2cc(C(=O)N3CCc4ccccc4C3)no2)c1` showed viability equal to 99.5

`Cc1cc(C)n2nc(S(=O)(=O)N(C)Cc3ccccc3)nc2n1` has a reported viability of 80

# viability of `Cc1ccc(-n2nnnc2SCC(=O)c2cc(C)n(-c3cc(C)on3)c2C)cc1` = 91

Entry under test: CCN(CC)CCN1C(=O)C(O)=C(C(=O)c2cccs2)C1c1ccccn1 (stereo unspecified) . Its viability was 86

So for `CCOC(=O)c1[nH]c(C)c(C(=O)Nc2ccc(C)c(Cl)c2)c1C` , the logged viability turned out to be 94

Would you be so kind as to report viability for each listed record?
1. COc1ccc(/C=C(/C#N)c2cccnc2)cc1OC
2. O=C(Nc1cccc(F)c1)c1ccc2c(c1)OCO2

A.
92
97.5

Dear colleague, could you send me viability for each of the items below? Thanks.
1. CC1CCCCC1NC(=O)c1nn(C)c(=O)c2ccccc12 (stereo unspecified)
2. O=C(CCN1CCc2ccccc2C1)Nc1ccc2c(c1)OCO2
3. CCS(=O)(=O)N1CCC(C(=O)NCCc2ccc(C)cc2)CC1

A.
1. 88
2. 88.5
3. 99

---

method: HUVEC growth inhibition – cell-based, human, primary screen (AID 575);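 note: 100% = median of untreated cell wells with 0.1% DMSO on each plate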
assay_setup: HUVEC proliferation, CellTiter-Glo luminescence, 72 h; at 10 µM; stronger effect = lower value
measured_quantity: viability (%)
Numbers only, in %.

Reference set, count: 8
viability in this record for `C[C@H]1C[C@@H]2[C@H]([C@@H](O)C[C@@]3(C)[C@H]2CC[C@]3(O)C(=O)CO)[C@@]2(C)C=CC(=O)C=C12` : 93.8

# viability (compound: `Cc1oc(-c2ccccc2F)nc1CS(=O)(=O)CC(=O)NCc1ccco1` ) is 85.9

The compound listed as `COC(=O)c1ccc(CNC(=O)COc2ccccc2Br)o1` shows viability equal to 100

Summary for this compound, `c1cncc(-c2nnc3n2N=C(c2cccs2)CS3)c1` : viability is 78.2

Briefly, viability measured for COc1ccc(C2c3c(-c4ccccc4O)n[nH]c3C(=O)N2CCc2ccc(OC)c(OC)c2)cc1 (stereo not given) : 60.3

Entry COc1ccc(NC(=O)CS(=O)CC(=O)Nc2cc(Cl)ccc2OC)cc1 (stereo not given) — recorded viability = 80.8

// `CCCCOCCCNC(=O)c1cccs1` : viability value = 97.8

compound `COc1cc(NC(=O)c2cc(CC(C)C)on2)c(OC)cc1Cl` , viability observed: 105

Give one value of viability per listed compound.
1. CCOC(=O)C1CCN(c2c(NCCN3CCN(c4ccccc4)CC3)c(=O)c2=O)CC1
2. CCOC(=O)Cc1c(C)c2c(O)cc(O)cc2oc1=O

A.
[92.1, 97.3]

---

Please respond with reported viability increase for every item in the list.
method: viability gain of MRP-1-high H69AR cells under doxorubicin, pilot screen, MRP-1 activator project, CellTiter-Glo, duplicate (AID 807);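 note: compound pretreatment 18-22 h then 72 h combined with doxorubicin; 0% = doxorubicin alone and 100% = vehicle without doxorubicin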
assay_setup: H69AR viability with doxorubicin, CellTiter-Glo luminescence; at 10 µM; stronger effect = higher value
Activity calls are given as the source filed them.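 Rule for the calls: active = viability increase at or above a cutoff of the median across tested compounds plus 3 SD (cut at about 8.5% in these data, passing the limit was not always enough); inconclusive = some gains above the cutoff, reason not given; inactive = the rest.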

For each of the compounds below, note its viability increase.
1. Cc1nn(-c2cccc(C(F)(F)F)c2)c(Cl)c1/C=N/n1cnnc1
2. COc1cccc(-c2nc(CS(=O)CC(=O)NCc3ccc4c(c3)OCO4)c(C)o2)c1 (stereo unspecified)
3. CCOC(=O)C1CCCN(C(=O)CNC(=O)Cn2ccc3ccccc3c2=O)C1 (stereo unspecified)
4. COc1cc(C(=O)NCC(c2ccco2)N2CCCC2)ccc1OCc1c(C)noc1C (stereo unspecified)
5. Cc1cc(C(=O)NC(C)c2ccncc2)no1 (stereo unspecified)
6. O=c1c2cnn(-c3ccccc3)c2ncn1Cc1ccccc1F

A.
-6.44% (inactive)
0.74% (inactive)
-4.65% (inactive)
-4.73% (inactive)
-2.15% (inactive)
-0.65% (inactive)

---

method: reversal of MRP1-mediated doxorubicin resistance, pilot screen, H69AR cells, doxorubicin co-treatment (AID 601)
assay_setup: H69AR cells + 2 uM doxorubicin, CellTiter-Glo, 72 h; at 10 µM; stronger effect = higher value
Activity calls are given as the source filed them.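 Rule for the calls: active = viability loss from added drug above about 55%, and viability with drug at most 40%, in both replicates (limit read from the data, passing the limit was not always enough); inconclusive = both conditions met in only one replicate; inactive = neither replicate meets both conditions.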
Field: differential viability (reversal). Provide a value for each of the molecules that follow.

Kindly note the recorded differential viability (reversal) for `CCC1(c2ccccc2)C(=O)NCNC1=O` , which is 16.5% (inactive)

Lab note: measured differential viability (reversal) of CCOc1ccccc1C1CC(=O)NC(SCC)=C1C#N (configuration not stated) was 7.42% (inactive)

differential viability (reversal) in this record for `CCOC(=O)N1CCN(C(=O)CCc2c(C)nc3c(c(C)nn3-c3ccc(C)c(C)c3)c2C)CC1` : 6.21% (inactive)

I have 2 molecules here; please give me differential viability (reversal) for each one.
1. Cc1cc(NC(=O)Cc2cn3ccsc3n2)n(-c2ccccc2)n1
2. CCOc1ccccc1NS(=O)(=O)c1c(C)noc1C

A.
5.08% (inactive)
16.6% (inactive)

Quick one: give me differential viability (reversal) for each item below, same order please.
1. O=C(CCc1nc2ccccc2[nH]1)Nc1ccc2c(c1)OCO2
2. c1cn(CC2(Cn3ccnc3)COC2)cn1
3. Cc1cc(-c2ccccc2)nc2cc(C(=O)NCCCn3ccnc3)nn12
4. CC(C(=O)Nc1ccccc1-c1ccccc1)N1CCOCC1 (configuration not stated)
5. NC(=O)NC(c1ccccc1)c1ccccc1F (configuration not stated)
6. Cc1cc(=O)n(CC(C)C)c(O)c1C#N
7. COc1cccc(N2CCN(CC(=O)NCc3cccs3)CC2)c1

A.
-2.33% (inactive)
12% (inactive)
8.86% (inactive)
-1.07% (inactive)
6.78% (inactive)
0.33% (inactive)
6.28% (inactive)

Sourced from PubChem BioAssay
